# IC50 values compiled below
Protein target, amino acids: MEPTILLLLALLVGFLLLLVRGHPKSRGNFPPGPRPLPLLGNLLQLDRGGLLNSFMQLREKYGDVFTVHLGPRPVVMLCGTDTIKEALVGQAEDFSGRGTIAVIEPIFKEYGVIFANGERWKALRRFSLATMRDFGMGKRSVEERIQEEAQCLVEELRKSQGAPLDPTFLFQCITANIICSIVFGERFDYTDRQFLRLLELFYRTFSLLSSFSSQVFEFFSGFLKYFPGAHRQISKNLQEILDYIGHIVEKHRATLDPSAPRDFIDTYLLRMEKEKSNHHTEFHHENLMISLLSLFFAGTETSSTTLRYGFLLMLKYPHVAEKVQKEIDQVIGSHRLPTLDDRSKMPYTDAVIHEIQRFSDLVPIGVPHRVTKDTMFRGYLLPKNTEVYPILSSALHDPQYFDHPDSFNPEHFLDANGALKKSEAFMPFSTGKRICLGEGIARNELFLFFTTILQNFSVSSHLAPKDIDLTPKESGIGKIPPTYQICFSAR
PROPERTY LABEL: IC50 (µM)

# COMPOUND, PROPERTY LABEL, QUALIFIER, MEASUREMENT
data = [
    ("Nc1ccc(O)c2c1C(=O)c1ccccc1C2=O [Compound 2, 1-amino-4-hydroxyanthracene-9,10-dione]", "IC50", "=", 2.15),
    ("Cc1cc(O)c2c(c1)C(=O)c1cc(O)cc(O)c1C2=O [emodin, Emodin, reference compound]", "IC50", "=", 14.9),
    ("CC(C)(C)C1=CC(=O)c2c(ccc(C(C)(C)C)c2O)C1=O [Compound 8]", "IC50", "=", 5.66),
    ("Cc1cc(Cl)c2c(c1N)C(=O)c1ccccc1C2=O [Compound 1]", "IC50", ">", 50),
]

###

Listed next: entries and their corresponding pIC50.
# ASSAYED TARGET: human P450 1A2 (Homo sapiens, UniProt P05177)
# Sequence (P05177 1-516): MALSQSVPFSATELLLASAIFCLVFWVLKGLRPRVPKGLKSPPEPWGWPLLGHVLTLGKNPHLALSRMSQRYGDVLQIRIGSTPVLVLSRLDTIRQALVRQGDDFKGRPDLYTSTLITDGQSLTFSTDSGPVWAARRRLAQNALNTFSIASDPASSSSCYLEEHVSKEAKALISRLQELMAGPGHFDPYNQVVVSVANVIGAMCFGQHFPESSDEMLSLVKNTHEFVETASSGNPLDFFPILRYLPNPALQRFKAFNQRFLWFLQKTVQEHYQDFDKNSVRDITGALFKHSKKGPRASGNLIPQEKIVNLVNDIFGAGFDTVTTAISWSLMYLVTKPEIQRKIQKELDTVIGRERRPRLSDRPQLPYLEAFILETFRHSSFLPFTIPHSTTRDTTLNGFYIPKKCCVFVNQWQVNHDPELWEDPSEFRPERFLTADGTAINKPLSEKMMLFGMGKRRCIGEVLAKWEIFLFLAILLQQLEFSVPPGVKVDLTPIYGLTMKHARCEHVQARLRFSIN
pIC50: −log10 of the molar value.
PROPERTY LABEL: pIC50

# COMPOUND, ASSAYED TARGET, QUALIFIER, MEASUREMENT
data = [
    ("CC(C)(C)C1=CC(=O)c2c(ccc(C(C)(C)C)c2O)C1=O", "human P450 1A2 (Homo sapiens, UniProt P05177)", "<", 4.30),
    ("Nc1ccc(O)c2c1C(=O)c1ccccc1C2=O [Compound 2, 1-amino-4-hydroxyanthracene-9,10-dione]", "human P450 1A2 (Homo sapiens, UniProt P05177)", "=", 6.28),
]
